Target: Adrenergic receptor beta (Rattus norvegicus) (UniProt P18090+P10608+P26255)
Assay: In vivo beta-adrenoceptor blocking potency measured by blockade of the isoproterenol tachycardia response in rat
Format: functional, organism-based
parameter: ED50 (mg/kg)
Field format: number, assumed mg/kg, no unit text.

| molecule | outputUnit | valueReported |
| --- | --- | --- |
| O=C(NCCNCC(O)c1ccccc1)Nc1ccccc1 (configuration not stated) | mg/kg | 2.9 |
| CC(CNC(=O)Cc1ccccc1)NCC(O)c1ccccc1 (configuration not stated) | mg/kg | 0.1 |
| COc1ccc(CC(=O)NCCNCC(O)c2ccccc2)cc1 (configuration not stated) | mg/kg | 0.32 |
| NC(=O)c1ccccc1OCC(=O)NCCNCC(O)c1ccccc1 (configuration not stated) | mg/kg | 5.2 |
| N#Cc1ccc(OCC(=O)NCCNCC(O)c2ccccc2)cc1 (configuration not stated) | mg/kg | 0.7 |

// lookup ED50 for COCC(=O)NCCNCC(O)c1ccccc1 (configuration not stated) 0.4

// lookup ED50 for CC(C)C(=O)NCCNCC(O)c1ccccc1 (configuration not stated) 0.7

// lookup ED50 for O=C(NCCNCC(O)c1ccccc1)c1ccccc1 (configuration not stated) 10

// lookup ED50 for CC(O)c1ccc(OCC(=O)NCCNCC(O)c2ccccc2)cc1 (configuration not stated) 1.6

// lookup ED50 for C=CCNC(=O)NCCNCC(O)c1ccccc1 (configuration not stated) 0.26

// lookup ED50 for CC(C)C(=O)NCCNCC(O)c1ccc([N+](=O)[O-])cc1 (configuration not stated) 10

// lookup ED50 for O=C(CO)NCCNCC(O)c1ccccc1 (configuration not stated) 0.3

// lookup ED50 for CC(=O)NCCNCC(O)c1ccccc1 (configuration not stated) 0.08

// lookup ED50 for O=C(NCCNCC(O)c1ccccc1)c1ccc(O)cc1 (configuration not stated) 9

// lookup ED50 for O=C(COc1ccccc1)NCCNCC(O)c1ccccc1 (configuration not stated) 1

// lookup ED50 for C=CCOc1ccccc1OCC(=O)NCCNCC(O)c1ccccc1 (configuration not stated) 5.8

// lookup ED50 for CC(CNC(=O)Cc1ccccc1Cl)NCC(O)c1ccccc1 (configuration not stated) 0.03

// lookup ED50 for CC(CNC(=O)C1CCCCC1)NCC(O)c1ccccc1 (configuration not stated) 0.11

// lookup ED50 for CCCCNC(=O)NCCNCC(O)c1ccccc1 (configuration not stated) 0.5

// lookup ED50 for O=C(NCCNCC(O)c1ccccc1)C(F)(F)F (configuration not stated) 0.1

// lookup ED50 for O=C(NCCNCC(O)c1ccccc1)C1CCCC1 (configuration not stated) 0.42

// lookup ED50 for O=C(Cc1ccccc1)NCCNCC(O)c1ccccc1Cl.O=C(O)/C=C/C(=O)O (configuration not stated) 0.6

// lookup ED50 for CCCC(=O)NCCNCC(O)c1ccccc1 (configuration not stated) 0.45

// lookup ED50 for CCC(=O)NCCNCC(O)c1ccccc1 (configuration not stated) 0.07

// lookup ED50 for COc1ccc(CC(=O)NCCNCC(O)c2ccccc2)cc1OC (configuration not stated) 7

// lookup ED50 for CC(C)C(=O)NCCNCC(O)c1ccc(Br)cc1 (configuration not stated) 1.6

// lookup ED50 for CC(C)C(=O)NCCNCC(O)c1ccc(N)cc1 (configuration not stated) 0.6

Cited source: ChEMBL document CHEMBL1121381
